Data credit: the supplement of paper PMC9170038

Assign apparent KD of MS2 coat protein to each entry below.
Test system: MS2 coat protein
PROTOCOL SUMMARY: apparent KD of MS2 coat protein; higher = weaker reporter binding
CONDITION SET: Eterna round: R107; input ligand: theophylline 20 uM
Give just the numeric value; nM need not be written.

Quick one: give measured apparent KD of MS2 coat protein for AGCACGGUGAUGGUAGCCGGACGCUAAGUACGAGGACCGGUACGGCCGCCACUCGGAGUCCUACGACAUGAGGAUCACCCAUGUA [Same State Trp A GF12]
50

Tell me measured apparent KD of MS2 coat protein for UUCAGUACAACAGAUACCAGACAGUACUCUAAAUUGCAACAUGAGGAUCACCCAUGUAUAGUCCCUUGGCAGCUGUAAUGGGUGA [Theo B SS s2] please.
159

Dear colleague, please send me the reported apparent KD of MS2 coat protein for CGAAUAUAGACGGCCGCCACUCUACAAACAUGAGGAUCACCCAUGUUCACAUAGUGGAAACACAUGAGGACCGGGUCAUAGGCUU [#19 Same State - Tryptophan B] when you can.
26.9

Give me measured apparent KD of MS2 coat protein, please, for this sequence: AACAUGAGGAUCACCCAUGUCUGAACUGAAGGAGCGCUAAAUAAGGCAGGUAGGUCGCGGAAUUUUAUAUAUAUAUAUAUAUAGG [9.D]
31.9

Return reported apparent KD of MS2 coat protein. Input sequence: AGAGCAUUGACGGCCGCCACUCGUGUCACAUGAGGAUCACCCAUGUGAUGGGUGAUAGCCCGGUUGAGGACCGGGUCAAUGCUCA [Omei Tryp SS B v7]
16.8

Retrieve apparent KD of MS2 coat protein measured for AAUAAUCUAGGUGAUACCAGCUCAACAUGAGGAUCACCCAUGUACUCAUGUAGAGUUGAGAGCCCUUGGCAGCACCUAGAUAAUA [(Theo1)-(Ms2)-(M)'-(T)'-(Theo2)] and print it.
665

----------
Can you tell me apparent KD of MS2 coat protein for the items I'm about to list?
Test system: MS2 coat protein
PROTOCOL SUMMARY: apparent KD of MS2 coat protein; designed switch direction (-1 OFF switch, 1 ON switch): -1; higher = weaker reporter binding
CONDITION SET: input ligand: FMN 200 uM
Express your answer in nM, writing the number without its unit.

Please indicate apparent KD of MS2 coat protein recorded for AGUUGGCGAGGAUAUACAUGAGGAUCACCCAUGUAUGAGAUACGAGUAAGGUAAAUAUGUAGAAGGCGCUGACA [JR_Ex3_Sub077] (Eterna round: R97, puzzle: Exclusion 3)
52

Answer with the recorded apparent KD of MS2 coat protein of GAAGAUCGAGUUAGGAUAUGAUUACUAUCCGAAAAUCAGAAGGAACUUGAGGAUCACCCAAGUUUAGAAGAAAU [JR_BMEx4_Sub052] (Eterna round: R97, puzzle: Brourd's mod of Exclusion 4) only.
18.2

Indicate its recorded apparent KD of MS2 coat protein; the sequence in question is UAUCGGGACUGAGGAUAUUCGUUCGAACACGAAGAAGAAGGUAGUGUCAGGGACAUGAGGAUCACCCAUGUGAUUUCAGUCCCA [JL ViennaUCT Erinle mod 4] (Eterna round: R96, puzzle: Exclusion NG 1)
133

In one line, give reported apparent KD of MS2 coat protein of the entry ACAUGUAAUGCAGGAUAUCGGACACAUGAGGAUCACCCAUGUGACCAGAGGAAUUGCUAAGAGUCUGAGAAGGGUAUGUACAUG [Ex NG2 #52] (Eterna round: R96, puzzle: Exclusion NG 2) .
23.2

// fetch apparent KD of MS2 coat protein given entry GUCGUGCGGCUUUGCUGUACGAGUACAUGAGGAUCACCCAUGUAGGAUAUGGUUCGCUUUGCGUGCCAGAAGGGCGUGCGUUGG [Excl-NG3-LRO12] (Eterna round: R96, puzzle: Exclusion NG 3)
31.3

----------
Tested on: MS2 coat protein
PROTOCOL SUMMARY: apparent KD of MS2 coat protein; designed switch direction (-1 OFF switch, 1 ON switch): -1; higher = weaker reporter binding
CONDITION SET: Eterna round: R95; input ligand: FMN 200 uM
Please provide measured apparent KD of MS2 coat protein for the entries that follow.
Kindly provide the numeric value in nM only, without the unit symbol.

Item UGGUAACAUGAGGAUCACCCAUGUCAGGAUAUCAGUAAGAAUAGAGGAGAGUAGAAGAUGAGAAGGGACUAUAU [Excluse me! 8 - Jieux - Exclusion 1] (puzzle: Exclusion 1) : provide apparent KD of MS2 coat protein
20.5

Give apparent KD of MS2 coat protein for GAUGCUUCGGCAUCUACAAGCUUUUUGCUCGUCUUAUUAACAUGAGGAUCACCCAUGUUAAUGAGACCUCAUGUAUU [Sensor v3 - turn-off variant 2 - 7] (puzzle: Sensor v3, turn-off variant 2)
13.5

Look up and report measured apparent KD of MS2 coat protein for this entry: AAGAAACAUGAGGAUCACCCAUGUGAGGAUAUGUAAAAUAAAAGAAAAGAAAGAAGAAACAGAAGGCACAAAGG [Mat - Mod of Hog D13] (puzzle: Exclusion 1)
47.3

For the sequence GAUUAUGCGAGCUUUAGGGACAUGAGGAUCACCCAUGUUCGUCUUAUUAGUCUAGAUACGCUGACAUACCUAAAUCU [JMF 96] (puzzle: Sensor v3, turn-off variant 1) , report apparent KD of MS2 coat protein.
14.5

Please report the measured apparent KD of MS2 coat protein for AAAGAACAUGAGGAUCACCCAUGUAAGGAUAUCCAAAAGAAGGAAAGAAAGAAAAGAAGGAGAAGGUACAAGAA [JR_Exclu1_Sub041] (puzzle: Exclusion 1)
33.5

----------
Tested on: MS2 coat protein
PROTOCOL SUMMARY: apparent KD of MS2 coat protein; designed switch direction (-1 OFF switch, 1 ON switch): -1; higher = weaker reporter binding
CONDITION SET: input ligand: FMN 200 uM
apparent KD of MS2 coat protein of 20 nM or higher: fulfilled. Under 20 nM: not fulfilled.

Please tell me: is the sequence GUCAUACAUGAGGAUCACCCAUGUGAGGAUAUGAGUGGUGCUGCUAGGUAGUAUAGACUCAGAAGGCGCAUGAU [Malcxlusion 1 - Jieux - Exclusion 1] (Eterna round: R97, puzzle: Exclusion 1) at or over 20 nM in terms of apparent KD of MS2 coat protein?
fulfilled

Form field: apparent KD of MS2 coat protein at least 20 nM? Entry: AACAUGAGGAUCACCCAUGUAAUGGACAGAUCACCGACCACGCAGGAUAUUAGGCCUCAAAUUCUUAAGAAGGGCGAGGAUGUG [Eternabot solution 49] (Eterna round: R96, puzzle: Exclusion NG 3)
fulfilled

Identify whether the reported apparent KD of MS2 coat protein of the following sequence is 20 nM or greater: GCUUGCUUUUUGGUUUUCAACAUGAGGAUCACCCAUGUUCGUCUUGUGCCCGGGCCCGGGCGGUGCCCGGGCCCGGG [A 9%] (Eterna round: R97, puzzle: Sensor, turn-off variant 1)
not fulfilled

State whether the measured apparent KD of MS2 coat protein reaches 20 nM, counting equality as reaching it, for GGAUAAAAGGCAGGAUAUACGUAUCACUAACGAGUAGAAGGGCCACAUGAGGAUCACCCAUGUGAGUUCUCAAUAAGAAACACG [Prohibition 63 - Jieux - Exclusion NG 1] (Eterna round: R96, puzzle: Exclusion NG 1)
not fulfilled

Could you verify whether the entry AUUUUGUGAGGAUAUUAGUUGUAGAAAAUUAUUAGUUUAGCUGAGAAGGCACAUGAGGAUCACCCAUGUAAAUC [JR_Ex4_Sub043] (Eterna round: R97, puzzle: Exclusion 4) shows apparent KD of MS2 coat protein of no less than 20 nM?
fulfilled

----------
Tested on: K4 kissing-loop RNA reporter;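 also: bound reporter read as fluorescence of individual clusters on recovered sequencing chips by microscopy, with normalized cluster intensities fitted with a binding model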
PROTOCOL SUMMARY: apparent KD of K4 kissing-loop reporter; higher = weaker reporter binding
CONDITION SET: Eterna round: R107; input ligand: arginine 13.2 mM
Parameter threshold = 100 nM. Response is true (1) when apparent KD of K4 kissing-loop reporter meets or exceeds it, else false (0).

Does CUAUGGAAACAUAGGAGUCGGGAAACCGAUACCAGUAUGGAAACAUACCCUUGGCAGCGGAAUGAUUCAACGGAGUGAUGUUCCG [Theophylline A K4 19] have a reported apparent KD of K4 kissing-loop reporter of at least 100 nM?
true (1)

Could you please find out whether `CCUCACGUAGGACUAGUGAUGUUAGACUACCGAGGACCGGUACGGCCGCCACUCGUCGUACAAGAUAACCUUCCGCCAGUAUACG` has apparent KD of K4 kissing-loop reporter that meets 100 nM or exceeds it?
false (0)

Is it the case that UUUUGGUACUGAGGAUAUUCGAAGAAAUAUAGUGAUGUUAUAUAAGGAGGAGGAGGGAGGGAGGAAGGAGAAGGCAGAAGAGGAG [ExFMNB.G] has apparent KD of K4 kissing-loop reporter reaching or exceeding 100 nM?
true (1)

Hi team, for CUUCGUAAGGGCCCAGUGAUGUUGGGCACUCGAGGACCGGUACGGCCGCCACUCGCUCCCUAAGUCGCGCGCGUGGGCCACCGCC [Rezariatra] , is the recorded apparent KD of K4 kissing-loop reporter at or above 100 nM?
true (1)

Assess whether reported apparent KD of K4 kissing-loop reporter for AGUGAUGUGGGAAGGAGCGCUACAAGACUUCAGUGAUGUUGAAGUGAUGAUUUAGUGUUGUAGCAGGUAGGUCGCCUAGAUGUUA [KL-XARG-B9] sits at 100 nM or higher.
false (0)

In plain terms: is recorded apparent KD of K4 kissing-loop reporter at least 100 nM for AGUGCACUGUCAGGAUAUAUACAGUGAUGUUGUGUAUGUCAGCAAGUCAAAGACUUGCUGUUCUGUGUAGAAGGGACUGUGUACA [Omei KL FMN B Exc A v3] ?
true (1)
